Data credit: the supplement of paper PMC8699584

Please provide measured cell viability for the entries that follow.
# Test system: Molm13
# experimental.details: cell viability relative to DMSO control (bortezomib = 0%); higher = less growth inhibition
# test.conditions: 10 nM; 72 h
Counter-ions that a name gives are not always drawn.
Please give a number only; it is taken to be in %.

# input State the recorded cell viability for this entry: CN1CCC(CNc2ccc3ncc(-c4cccc(OC(F)(F)F)c4)n3n2)CC1 [SGI-1776 free base]
# output 92.3

# input Next record, please: `O=c1ccc2ccc(O)c(O)c2o1`
# output 100

# input Next record, please: CC(C)c1ccc2c(c1)CC[C@@H]1[C@@](C)(CN)CCC[C@@]21C [Leelamine (hydrochloride)]
# output 102

# input Next record, please: `Oc1cccc(Nc2ncc(F)c(Nc3cccc(O)c3)n2)c1`
# output 83

# input Next record, please: `CNS(=O)(=O)C[C@H]1CC[C@H](N(C)c2[nH]cnc3nccc2-3)CC1`
# output 96.5

# input Next record, please: `CCNc1nc(Nc2cc(F)c(C(=O)N3CCOCC3)cc2OC)ncc1C(F)(F)F`
# output 106

# input Next record, please: O=C(NC(NC(=S)Nc1ccc(F)c([N+](=O)[O-])c1)C(Cl)(Cl)Cl)C(c1ccccc1)c1ccccc1 (stereo not drawn)
# output 109

# input Next record, please: `O=C(c1ccc(/C=C/c2n[nH]c3ccccc23)cc1)N1CCNCC1`
# output 104

# input Next record, please: CC1(C)CNc2cc(NC(=O)c3cccnc3NCc3ccncc3)ccc21 [Motesanib Diphosphate (AMG-706)]
# output 89.2

# input Next record, please: `O=C(Nc1cc(C(F)(F)F)ccc1N1CCCCC1)c1ccncc1`
# output 99.5

# input Next record, please: `CC(=O)Nc1cccc(-n2c(=O)n(C3CC3)c(=O)c3c(Nc4ccc(I)cc4F)n(C)c(=O)c(C)c32)c1`
# output 101

# input Next record, please: CC(C)CCN1c2nc(Nc3cc(F)c(O)c(F)c3)ncc2N(C)C(=O)C1C (stereo not drawn)
# output 100

# input Next record, please: `CC(C)(C)n1nc(Cc2cccc3ccccc23)c2c(N)ncnc21`
# output 106

# input Next record, please: N#CCC(C1CCCC1)n1cc(-c2ncnc3[nH]ccc23)cn1 (stereo not drawn)
# output 112

# input Next record, please: `COc1cc2ncnc(Nc3ccc(O)cc3)c2cc1OC`
# output 101

# input Next record, please: `CN(C)C(=O)c1ccc(S(=O)(=O)c2ccc(NC(=O)[C@@](C)(O)C(F)(F)F)c(Cl)c2)cc1`
# output 97

# input Next record, please: `CO[C@@H]1[C@H](N(C)C(=O)c2ccccc2)C[C@H]2O[C@]1(C)n1c3ccccc3c3c4c(c5c6ccccc6n2c5c31)C(=O)NC4`
# output 95

# input Next record, please: CCS(=O)(=O)N1CC(CC#N)(n2cc(-c3ncnc4[nH]ccc34)cn2)C1 [Baricitinib†(Phosphate)]
# output 112

----------
# Tested on: Mv4-11
# experimental.details: cell viability relative to DMSO control (bortezomib = 0%); higher = less growth inhibition
# test.conditions: 10 nM; 72 h
measurement.kind: cell viability (%)
Please give a number only; it is taken to be in %.

# input What value of cell viability on Mv4-11 does `COc1cc2ncnc(Oc3cccc(NC(=O)Nc4cc(C(C)(C)C(F)(F)F)on4)c3)c2cc1OC` have?
# output 113

# input Next record, please: `CCOc1cc2ncc(C#N)c(Nc3ccc(OCc4ccccn4)c(Cl)c3)c2cc1NC(=O)/C=C/CN(C)C`
# output 100

# input Next record, please: CCS(=O)(=O)N1CC(CC#N)(n2cc(-c3ncnc4[nH]ccc34)cn2)C1 [Baricitinib†(Phosphate)]
# output 115

# input Next record, please: `Cc1ncc(CCCN(C)C)cc1Nc1ncc2c(n1)-c1ccc(C(F)(F)F)cc1NC(=S)C2`
# output 108

# input Next record, please: `FC(F)(F)c1ccc(CNc2ccc(Cc3c[nH]c4ncc(Cl)cc34)cn2)cc1`
# output 106

# input Next record, please: `Cc1ccc(S(=O)(=O)/C=C/C#N)cc1`
# output 98.8

# input Next record, please: `CC1(C)OC(=O)C=C[C@]2(C)[C@H]3CC[C@@]4(C)[C@H](c5ccoc5)OC(=O)[C@H]5O[C@]54[C@]3(C)C(=O)C[C@@H]12`
# output 109

# input Next record, please: `Cc1ccc(C(=O)N(CCCN)[C@@H](c2oc3cc(Cl)ccc3c(=O)c2Cc2ccccc2)C(C)C)cc1`
# output -0.7

# input Next record, please: `N#Cc1c(-c2ccccc2)cc(-c2cc(Br)ccc2O)[nH]c1=O`
# output 114

# input Next record, please: `Cn1cc(-c2ccc3c(c2)CCN3C(=O)Cc2cccc(C(F)(F)F)c2)c2c(N)ncnc21`
# output 108

# input Next record, please: `Cn1cnc2c(F)c(Nc3ccc(Br)cc3Cl)c(C(=O)NOCCO)cc21`
# output 106

# input Next record, please: `CN1CCN(CCCNc2ncc(Cl)c(-c3cc4c(C(=O)NC5CC5)cccc4s3)n2)CC1`
# output 109

# input Next record, please: COC(=O)c1ccc2c(c1)NC(=O)/C2=C(\Nc1ccc(N(C)C(=O)CN2CCN(C)CC2)cc1)c1ccccc1 [Nintedanib (BIBF 1120)]
# output 113

# input Next record, please: `O=[N+]([O-])c1ccc(-c2nc(-c3ccc(F)cc3)c(-c3ccncc3)[nH]2)cc1`
# output 101

# input Next record, please: `C[C@]1(O)C[C@@H](c2nc(-c3ccc4ccc(-c5ccccc5)nc4c3)c3c(N)nccn32)C1`
# output 116

# input Next record, please: `CN1C/C=C/CCOc2cccc(c2)-c2ccnc(n2)Nc2cccc(c2)C1`
# output 102

# input Next record, please: `CC(C)(C)c1ccc(S(=O)(=O)/C=C/C#N)cc1`
# output 98.9

----------
# Test system: Molm13
# experimental.details: cell viability relative to DMSO control (bortezomib = 0%); higher = less growth inhibition
# test.conditions: 10 nM; 72 h
Where a name gives a salt, the structure may show the parent alone.
Please provide measured cell viability for the entries that follow.
Please give a number only; it is taken to be in %.

# input State the recorded cell viability for this entry: `Cc1ccc(C(=O)N(CCCN)[C@@H](c2oc3cc(Cl)ccc3c(=O)c2Cc2ccccc2)C(C)C)cc1`
# output 2.68

# input Next record, please: `O=C1NC(=O)/C(=C/c2cccc(C(F)(F)F)c2)S1`
# output 112

# input Next record, please: `O=c1cc(N2CCOCC2)oc2c(-c3cccc4c3sc3ccccc34)cccc12`
# output 108

# input Next record, please: `Cc1cc(NC(=O)c2cccc(NC(=O)/C=C/CN(C)C)c2)ccc1Nc1nccc(-c2cccnc2)n1`
# output 92

# input Next record, please: `COc1cc(N2CCN(C)CC2)ccc1Nc1nccc(-c2cn(C)c3cnccc23)n1`
# output 118

# input Next record, please: `CNC(=O)Nc1cc(Oc2cncc(C)c2)c(-c2ccc(OCC(C)(C)O)nc2)cn1`
# output 101

# input Next record, please: `c1ccc2c(-c3cnn4cc(-c5ccc(N6CCNCC6)cc5)cnc34)ccnc2c1`
# output 98

# input Next record, please: N#CCC(=O)NN [Cyanoacetohydrazide]
# output 128

# input Next record, please: Cc1ccc([N+](=O)[O-])cc1S(=O)(=O)N(C)/N=C/c1cnc2ccc(Br)cn12 [PIK-75 (hydrochloride)]
# output 94.7

# input Next record, please: `O=c1ccc2ccccc2o1`
# output 114

# input Next record, please: `CC(C)(C)c1ccc(S(=O)(=O)/C=C/C#N)cc1`
# output 108

# input Next record, please: `O=C(O)CN1C(=O)c2c(I)c(I)c(I)c(I)c2C1=O`
# output 126

# input Next record, please: `Cc1cc(CN2CCN(c3c(Br)cnc4nc(-c5ccc(N6CCN(C)CC6)cc5)[nH]c34)CC2)no1`
# output 85.6

# input Next record, please: `CCOC(=O)c1c2c3c(cccc3[nH]c1=O)C(=O)c1ccccc1-2`
# output 124

# input Next record, please: `N#Cc1c(Oc2ccc(F)c(NC(=O)Cc3cccc(C(F)(F)F)c3)c2)ccc2nc(NC(=O)C3CC3)sc12`
# output 105

----------
# System: Molm13
# experimental.details: cell viability relative to DMSO control (bortezomib = 0%); higher = less growth inhibition
# test.conditions: 10 nM; 72 h
Structures can show the parent of a compound that is named as a salt.
measurement.kind: cell viability (%)
Please give a number only; it is taken to be in %.

# input State the recorded cell viability for this entry: `CCCCCCCCCCCCc1ccc(S(=O)(=O)Nc2nncs2)cc1`
# output 108

# input Next record, please: `Cc1c(NC(=O)OC[C@@H]2COCCN2)cn2ncnc(Nc3ccc4c(cnn4Cc4cccc(F)c4)c3)c12`
# output 105

# input Next record, please: Cn1cc(C2=C(c3cn(CCCSC(=N)N)c4ccccc34)C(=O)NC2=O)c2ccccc21 [Ro 31-8220 Mesylate]
# output 108

# input Next record, please: `Cc1cnc(NC(=O)Nc2cc(Br)c(C)cc2OC[C@@H]2CNCCO2)cn1`
# output 101

# input Next record, please: `O=C1Nc2cc(Br)ccc2/C1=C1/Nc2ccccc2/C1=N\O`
# output 109

# input Next record, please: `CC(=O)c1cnc2ccc(-c3cc(Cl)c(O)c(Cl)c3)nc2c1N[C@H]1CC[C@H](CN(C)C)CC1`
# output 95.1

# input Next record, please: `CCc1cnn2c(NCc3ccc[n+]([O-])c3)cc(N3CCCC[C@H]3CCO)nc12`
# output 93.2

# input Next record, please: `O=c1cc(-c2cccc3c2Sc2ccccc2S3)oc(N2CCOCC2)c1`
# output 104

# input Next record, please: `CS(=O)(=O)c1ccc(-c2cnc(N)c(C(=O)Nc3ccccc3)n2)cc1`
# output 83.9

# input Next record, please: `N#Cc1c(NC(=O)c2cccc3ccccc23)sc2c1CCCC2`
# output 102

# input Next record, please: `Cc1cccc(-c2[nH]c(C(C)(C)C)nc2-c2ccc3c(c2)OCO3)n1`
# output 118

# input Next record, please: `CC(C)(C)c1cc(NC(=O)Nc2ccc(-c3cn4c(n3)sc3cc(OCCN5CCOCC5)ccc34)cc2)no1`
# output 9.37

# input Next record, please: `COc1cc2nccc(Oc3ccc(NC(=O)Nc4ccc(F)cc4F)c(F)c3)c2cc1OC`
# output 98.1

# input Next record, please: CN(C)C(=N)NC(=N)N [Metformin hydrochloride]
# output 104

# input Next record, please: `CC(C)n1nc(-c2ccc3oc(N)nc3c2)c2c(N)ncnc21`
# output 89.4

# input Next record, please: `CCCCCCCCCCCCCC#CC(=O)[C@@H]1COC(C)(C)N1C(=O)OC(C)(C)C`
# output 108

# input Next record, please: `Nc1ccn([C@@H]2O[C@H](CO)[C@@H](O)C2(F)F)c(=O)n1`
# output -0.99
